These entries and their values trace back to ChEMBL document CHEMBL6083275.

Listing of entries alongside the reported half-life.
Assay: Metabolic stability in human liver microsomes assessed as half-life
Type: ADME, Microsome
The answer consists of two parts: a number and, after it, its unit.

For orientation, consider the following solved cases.
query: Identify half-life associated with the compound CC(C)C[C@](C)(N)COc1ccc(-c2ccnc(C(F)F)c2)c2nccn12
result: 88 min

query: Identify half-life associated with the compound CC(C)C[C@](C)(N)COc1ccc(-c2ccnc(C(F)F)c2)nc1C(F)F
result: 132 min

Read the next record carefully.
query: Identify half-life associated with the compound CC(C)C[C@](C)(N)COc1ccc(-c2ccnc(C(F)F)c2)n2cncc12
result: 127 min

====

Listing of entries alongside the reported bioavailability.
Experiment: Oral bioavailability in C57BL/6J mouse at 10 mg/kg
Assay type: ADME, organism-based
Conditions: in vivo
Respond with the bare value in %.

For orientation, consider the following solved cases.
query: Identify bioavailability associated with the molecule CC(C)C[C@](C)(N)COc1ccc(-c2ccnc(C(F)F)c2)n2cncc12
result: 143

query: Identify bioavailability associated with the molecule CC(C)C[C@](C)(N)COc1ccc(-c2ccnc(C(F)F)c2)nc1C(F)F
result: 103

Read the next record carefully.
query: Identify bioavailability associated with the molecule CC(C)C[C@](C)(N)COc1ccc(-c2ccnc(C(F)F)c2)c2nccn12
result: 103

====

Read-out record for AP2-associated protein kinase 1 (Homo sapiens, UniProt Q2M2I8): pIC50
pIC50: −log10 of the molar value.

query: Identify measured pIC50 obtained with AP2-associated protein kinase 1 (Homo sapiens, UniProt Q2M2I8) for CC(C)C[C@](C)(N)COc1ccc(-c2ccnc(C(F)F)c2)n2ccnc12 .
Sequence (Q2M2I8 whole entry): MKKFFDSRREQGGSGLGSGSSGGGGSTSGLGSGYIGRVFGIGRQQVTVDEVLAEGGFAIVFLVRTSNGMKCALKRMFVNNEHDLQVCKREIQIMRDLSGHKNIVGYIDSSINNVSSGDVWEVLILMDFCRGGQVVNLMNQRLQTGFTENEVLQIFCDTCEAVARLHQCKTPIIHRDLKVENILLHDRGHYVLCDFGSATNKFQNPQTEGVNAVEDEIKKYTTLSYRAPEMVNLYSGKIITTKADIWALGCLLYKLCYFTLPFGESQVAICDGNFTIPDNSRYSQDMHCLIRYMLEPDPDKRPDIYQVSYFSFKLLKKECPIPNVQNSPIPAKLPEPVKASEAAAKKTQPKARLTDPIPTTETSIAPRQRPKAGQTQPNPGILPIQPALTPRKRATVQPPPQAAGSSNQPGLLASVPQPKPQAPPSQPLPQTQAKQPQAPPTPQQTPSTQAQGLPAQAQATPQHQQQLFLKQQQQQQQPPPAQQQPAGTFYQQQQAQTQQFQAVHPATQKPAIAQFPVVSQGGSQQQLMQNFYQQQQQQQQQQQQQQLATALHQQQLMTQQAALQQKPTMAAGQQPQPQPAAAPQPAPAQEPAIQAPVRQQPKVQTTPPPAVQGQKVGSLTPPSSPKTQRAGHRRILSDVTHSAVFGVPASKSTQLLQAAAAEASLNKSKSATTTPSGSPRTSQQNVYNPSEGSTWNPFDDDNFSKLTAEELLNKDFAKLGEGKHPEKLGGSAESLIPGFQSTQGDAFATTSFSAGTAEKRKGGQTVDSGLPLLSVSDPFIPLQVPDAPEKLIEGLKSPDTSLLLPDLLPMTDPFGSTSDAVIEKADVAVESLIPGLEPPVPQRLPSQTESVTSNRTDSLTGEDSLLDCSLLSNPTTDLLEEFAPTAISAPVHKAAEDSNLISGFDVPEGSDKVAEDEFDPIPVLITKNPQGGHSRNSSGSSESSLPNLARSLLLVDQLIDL
result: < 7.70

New cases:
query: Identify measured pIC50 obtained with AP2-associated protein kinase 1 (Homo sapiens, UniProt Q2M2I8) for CC(C)C[C@](C)(N)COc1ccc(-c2ccnc(C(F)F)c2)c2nc(C(F)F)cn12 .
result: < 7.70

query: Identify measured pIC50 obtained with AP2-associated protein kinase 1 (Homo sapiens, UniProt Q2M2I8) for CC(C)C[C@](C)(N)COc1ccc(-c2ccnc(C(F)F)c2)c2nncn12 .
result: < 7.70

query: Identify measured pIC50 obtained with AP2-associated protein kinase 1 (Homo sapiens, UniProt Q2M2I8) for CC(C)C[C@](C)(N)COc1ccc(-c2ccnc(C(F)F)c2)nc1C(F)F .
result: 8.30

====

Assay: Clearance in rat at 1 mg/kg, iv
Format: ADME, organism-based
Details: in vivo
MEASURED_QUANTITY: clearance (mL/min/kg)
Respond with the bare value in mL/min/kg.

query: Identify clearance associated with the compound CC(C)C[C@](C)(N)COc1ccc(-c2ccnc(C(F)F)c2)nc1C(F)F
result: 28.3

New cases:
query: Identify clearance associated with the compound CC(C)C[C@](C)(N)COc1ccc(-c2ccnc(C(F)F)c2)c2nccn12
result: 31.7

====

Target: CYP3A4 (Homo sapiens)
Sequence (P08684 whole entry): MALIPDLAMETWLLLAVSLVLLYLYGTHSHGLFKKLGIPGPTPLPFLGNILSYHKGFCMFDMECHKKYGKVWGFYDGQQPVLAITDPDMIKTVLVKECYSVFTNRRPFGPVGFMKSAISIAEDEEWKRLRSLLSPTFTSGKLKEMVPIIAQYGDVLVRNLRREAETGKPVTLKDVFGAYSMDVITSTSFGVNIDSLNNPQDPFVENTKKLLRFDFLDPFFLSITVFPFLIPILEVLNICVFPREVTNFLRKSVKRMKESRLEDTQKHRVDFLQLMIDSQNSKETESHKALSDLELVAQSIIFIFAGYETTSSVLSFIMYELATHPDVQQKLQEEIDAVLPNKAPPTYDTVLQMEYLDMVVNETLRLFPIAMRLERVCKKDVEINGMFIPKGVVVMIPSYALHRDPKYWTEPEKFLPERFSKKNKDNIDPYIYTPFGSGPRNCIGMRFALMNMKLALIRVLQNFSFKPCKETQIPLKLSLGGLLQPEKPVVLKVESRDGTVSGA
Experiment: Inhibition of CYP3A4 (unknown origin) using midazolam as substrate at 10 uM relative to control
Type: ADME
Conditions: probe midazolam
MEASURED_QUANTITY: inhibition at 10 µM

query: Identify inhibition at 10 µM associated with the compound CC(C)C[C@](C)(N)COc1ccc(-c2ccnc(C(F)F)c2)n2cncc12
result: < 20%

query: Identify inhibition at 10 µM associated with the compound CC(C)C[C@](C)(N)COc1ccc(-c2ccnc(C(F)F)c2)nc1C(F)F [PILAVAPADIN]
result: < 20%

Read the next record carefully.
query: Identify inhibition at 10 µM associated with the compound CC(C)C[C@](C)(N)COc1ccc(-c2ccnc(C(F)F)c2)c2nccn12
result: < 20%

====

Biological target: UniProt P08684
Test: Inhibition of CYP3A4 (unknown origin) using testosterone as substrate at 10 uM relative to control
Type: ADME
Settings: probe testosterone
Listing of entries alongside the reported inhibition at 10 µM.

For orientation, consider the following solved cases.
query: Identify inhibition at 10 µM associated with the molecule CC(C)C[C@](C)(N)COc1ccc(-c2ccnc(C(F)F)c2)nc1C(F)F
result: < 20%

query: Identify inhibition at 10 µM associated with the molecule CC(C)C[C@](C)(N)COc1ccc(-c2ccnc(C(F)F)c2)c2nccn12
result: < 20%

Read the next record carefully.
query: Identify inhibition at 10 µM associated with the molecule CC(C)C[C@](C)(N)COc1ccc(-c2ccnc(C(F)F)c2)n2cncc12
result: < 20%

====

Target: Voltage-gated inwardly rectifying potassium channel KCNH2 (Homo sapiens, UniProt Q12809)
Sequence (Q12809 whole entry): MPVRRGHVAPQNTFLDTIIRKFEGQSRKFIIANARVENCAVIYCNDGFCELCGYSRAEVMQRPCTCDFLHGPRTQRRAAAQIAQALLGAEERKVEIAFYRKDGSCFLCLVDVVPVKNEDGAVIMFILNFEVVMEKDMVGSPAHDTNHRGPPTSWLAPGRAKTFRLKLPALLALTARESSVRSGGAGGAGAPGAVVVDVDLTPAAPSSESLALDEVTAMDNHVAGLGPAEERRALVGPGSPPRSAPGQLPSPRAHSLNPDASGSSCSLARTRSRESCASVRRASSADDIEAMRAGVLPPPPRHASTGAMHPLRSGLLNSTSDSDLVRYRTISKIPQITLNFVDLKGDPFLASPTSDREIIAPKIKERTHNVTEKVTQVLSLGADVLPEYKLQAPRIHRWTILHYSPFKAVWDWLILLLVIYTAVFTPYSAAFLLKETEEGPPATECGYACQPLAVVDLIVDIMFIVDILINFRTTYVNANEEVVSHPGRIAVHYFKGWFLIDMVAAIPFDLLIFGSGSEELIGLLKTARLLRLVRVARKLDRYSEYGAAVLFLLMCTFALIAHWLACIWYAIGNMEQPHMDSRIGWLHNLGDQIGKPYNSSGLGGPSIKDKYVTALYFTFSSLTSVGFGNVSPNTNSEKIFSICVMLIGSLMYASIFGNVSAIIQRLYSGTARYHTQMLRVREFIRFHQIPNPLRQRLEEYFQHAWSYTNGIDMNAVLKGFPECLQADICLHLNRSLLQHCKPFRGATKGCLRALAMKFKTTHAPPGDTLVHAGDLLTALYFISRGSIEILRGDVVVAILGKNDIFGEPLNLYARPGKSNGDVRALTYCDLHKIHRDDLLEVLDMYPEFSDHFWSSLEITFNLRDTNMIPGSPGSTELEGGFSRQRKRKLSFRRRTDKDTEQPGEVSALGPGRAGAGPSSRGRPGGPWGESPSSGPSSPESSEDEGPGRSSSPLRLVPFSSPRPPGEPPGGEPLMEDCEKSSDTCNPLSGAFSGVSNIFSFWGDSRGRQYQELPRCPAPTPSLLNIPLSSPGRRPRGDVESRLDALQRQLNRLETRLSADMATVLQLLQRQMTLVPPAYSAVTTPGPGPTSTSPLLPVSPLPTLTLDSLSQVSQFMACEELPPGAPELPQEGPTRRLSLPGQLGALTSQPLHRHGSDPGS
Test: Inhibition of human ERG by patch clamp assay
Listing of entries alongside the reported IC50.
Respond with the bare value in µM.

query: Identify IC50 associated with the compound CC(C)C[C@](C)(N)COc1ccc(-c2ccnc(C(F)F)c2)c2nccn12
result: 11.9

query: Identify IC50 associated with the compound CC(C)C[C@](C)(N)COc1ccc(-c2ccnc(C(F)F)c2)nc1C(F)F
result: 3.4

query: Identify IC50 associated with the compound CC(C)C[C@](C)(N)COc1ccc(-c2ccnc(C(F)F)c2)n2cncc12
result: 30

====

Test: Protein binding in dog plasma assessed as unbound fraction
Format: ADME, cell-free, Canis lupus familiaris
MEASURED_QUANTITY: fraction unbound
// no unit, no text: just the number

query: Identify fraction unbound associated with the compound CC(C)C[C@](C)(N)COc1ccc(-c2ccnc(C(F)F)c2)n2cncc12
result: 0.195

query: Identify fraction unbound associated with the compound CC(C)C[C@](C)(N)COc1ccc(-c2ccnc(C(F)F)c2)nc1C(F)F
result: 0.0417

Read the next record carefully.
query: Identify fraction unbound associated with the compound CC(C)C[C@](C)(N)COc1ccc(-c2ccnc(C(F)F)c2)c2nccn12
result: 0.129

====

Assay: Cmax in C57BL/6J mouse at 10 mg/kg, po
Assay type: ADME, organism-based
Details: in vivo
MEASURED_QUANTITY: Cmax (ng/mL)
Respond with the bare value in ng/mL.

query: Identify Cmax associated with the compound CC(C)C[C@](C)(N)COc1ccc(-c2ccnc(C(F)F)c2)nc1C(F)F
result: 718

query: Identify Cmax associated with the compound CC(C)C[C@](C)(N)COc1ccc(-c2ccnc(C(F)F)c2)n2cncc12
result: 706

query: Identify Cmax associated with the compound CC(C)C[C@](C)(N)COc1ccc(-c2ccnc(C(F)F)c2)c2cncn12
result: 407

====

Experiment: Protein binding in mouse plasma assessed as unbound fraction
Format: ADME, cell-free
MEASURED_QUANTITY: fraction unbound
// no unit, no text: just the number

query: Identify fraction unbound associated with the compound CC(C)C[C@](C)(N)COc1ccc(-c2ccnc(C(F)F)c2)c2nccn12
result: 0.128

query: Identify fraction unbound associated with the compound CC(C)C[C@](C)(N)COc1ccc(-c2ccnc(C(F)F)c2)nc1C(F)F
result: 0.02

query: Identify fraction unbound associated with the compound CC(C)C[C@](C)(N)COc1ccc(-c2ccnc(C(F)F)c2)n2cncc12
result: 0.107

====

Experiment: Apparent volume of distribution in C57BL/6J mouse at 1 mg/kg, iv
Format: ADME, organism-based
Settings: in vivo, read-out: Vz
MEASURED_QUANTITY: Vd (L/kg)
Respond with the bare value in L/kg.

query: Identify Vd associated with the compound CC(C)C[C@](C)(N)COc1ccc(-c2ccnc(C(F)F)c2)nc1C(F)F [PILAVAPADIN]
result: 18

query: Identify Vd associated with the compound CC(C)C[C@](C)(N)COc1ccc(-c2ccnc(C(F)F)c2)n2cncc12
result: 11

query: Identify Vd associated with the compound CC(C)C[C@](C)(N)COc1ccc(-c2ccnc(C(F)F)c2)c2nccn12
result: 18

====

Listing of entries alongside the reported Tmax.
Experiment: Tmax in C57BL/6J mouse at 10 mg/kg, po
Format: ADME, organism-based
Conditions: in vivo
Respond with the bare value in h.

query: Identify Tmax associated with the molecule CC(C)C[C@](C)(N)COc1ccc(-c2ccnc(C(F)F)c2)n2cncc12
result: 1

New cases:
query: Identify Tmax associated with the molecule CC(C)C[C@](C)(N)COc1ccc(-c2ccnc(C(F)F)c2)c2cncn12
result: 0.8

query: Identify Tmax associated with the molecule CC(C)C[C@](C)(N)COc1ccc(-c2ccnc(C(F)F)c2)c2nccn12
result: 1.2

query: Identify Tmax associated with the molecule CC(C)C[C@](C)(N)COc1ccc(-c2ccnc(C(F)F)c2)nc1C(F)F
result: 1.17

====

Assay: Tmax in rat at 10 mg/kg, po
Assay type: ADME, organism-based
Conditions: in vivo
Listing of entries alongside the reported Tmax.
Respond with the bare value in h.

query: Identify Tmax associated with the compound CC(C)C[C@](C)(N)COc1ccc(-c2ccnc(C(F)F)c2)c2nccn12
result: 5.3

Read the next record carefully.
query: Identify Tmax associated with the compound CC(C)C[C@](C)(N)COc1ccc(-c2ccnc(C(F)F)c2)nc1C(F)F [PILAVAPADIN]
result: 6.7

====

Assay: Metabolic stability in dog liver microsomes assessed as half-life
Assay type: ADME, Canis lupus familiaris, Microsome
MEASURED_QUANTITY: half-life (h)
Respond with the bare value in h.

For orientation, consider the following solved cases.
query: Identify half-life associated with the molecule CC(C)C[C@](C)(N)COc1ccc(-c2ccnc(C(F)F)c2)n2cncc12
result: 1.72

query: Identify half-life associated with the molecule CC(C)C[C@](C)(N)COc1ccc(-c2ccnc(C(F)F)c2)c2nccn12
result: 3.07

Read the next record carefully.
query: Identify half-life associated with the molecule CC(C)C[C@](C)(N)COc1ccc(-c2ccnc(C(F)F)c2)nc1C(F)F
result: 1.11
